Cited source for all entries: PubChem BioAssay

TARGET_OR_TEST_SYSTEM: Nuclear receptor coactivator 1 (Homo sapiens)
TEST: SRC1 coactivator transcriptional activity inhibitors, confirmation, cell-based, luminescence, quadruplicate (AID 588820);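 further: 0% = DMSO wells and 100% = gossypol 36 µM treated wells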
MEASUREMENT_SETUP: HEK293 GAL4-SRC1 luciferase reporter, at 3.6 µM
Calls of active or inactive are those of the source.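 How the source made its calls: active means mean inhibition above 46.68%, the untreated control wells mean plus 3 SD; inactive means the rest.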
Parameter call: string, one of 1 (yes) (active), 0 (no) (inactive)

Known results for compounds:
COMPOUND	LABEL
COc1ccc(/C=N/Nc2nc3ccccc3[nH]2)c(OC)c1OC	0 (no)
COc1cc2cncc(Cc3ccc(Cl)cc3)c2cc1OC	1 (yes)

Could you please tell me the result logged for "COc1ccc(C)cc1NC(=O)c1nnn(Cc2cccc(C(F)(F)F)c2)c1N" in this assay? 0 (no)

Could you please tell me the result logged for "CCN1CCS/C1=C\C=C\C1=[N+](CC)CCS1" in this assay? 0 (no)

Could you please tell me the result logged for "COc1cccc(N2CCN(c3c(C#N)c(C(F)(F)F)nn3C)CC2)c1" in this assay? 1 (yes)

Could you please tell me the result logged for "COc1ccc(CC(=O)Nc2ccc3c(c2)CCC3)cc1OC" in this assay? 0 (no)

Could you please tell me the result logged for "COc1ccc(OC)c(Cc2cnc3nc(N)nc(N)c3c2C)c1" in this assay? 1 (yes)

Could you please tell me the result logged for "CN(C)C(=O)c1cccc(-c2cnc3sc(NCc4ccc5c(c4)OCO5)nn23)c1" in this assay? 1 (yes)

Could you please tell me the result logged for "CC(=O)N1CCN(c2ccc(Oc3ncnc4sccc34)cc2)CC1" in this assay? 0 (no)

Could you please tell me the result logged for "COc1ccc(CN(C(=O)CSc2nnc(-c3c[nH]c4ccccc34)o2)c2ccc(F)cc2)cc1OC" in this assay? 0 (no)

Could you please tell me the result logged for "CCOC(=O)N1CCc2c(sc(NC(=O)CN3CCOCC3)c2C(=O)Nc2ccccc2)C1" in this assay? 0 (no)

Could you please tell me the result logged for "Cc1cccc(C)c1NC(=S)N(CCN(C)C)Cc1cccs1" in this assay? 0 (no)

---

TEST: VP16 transactivation reporter inhibitors, counter-screen for LRH-1 inverse agonist project, cell-based, luminescence, high throughput (AID 651615)
MEASUREMENT_SETUP: Gal4-VP16 luciferase reporter cells, at 3.6 µM
Active and inactive are the calls of the source. No stated cut-off is given here; in the data, active means inhibition above about 33%; inactive means the rest.
Parameter call: string, one of 1.0 (active), 0.0 (inactive)

COMPOUND	LABEL
Cn1nc(C(C)(C)C)cc1C(=O)NCc1ccc2c(c1)OCO2	1.0
CCOc1ccc(OCc2ccc(C(=O)NN=Cc3ccc[nH]3)cc2)cc1	1.0
COc1ccc(C2=Nn3c(nnc3-c3ccccc3OC)SC2)cc1OCC1CC1	0.0

Could you please tell me the result logged for "CC[C@H](CO)Nc1nc(Nc2cccc(Cl)c2)c2ncn(C(C)C)c2n1" in this assay? 1.0

Could you please tell me the result logged for "O=C(Nc1ccc(F)cc1)c1oc2ccccc2c1NC(=O)C1CC1" in this assay? 0.0

Could you please tell me the result logged for "C/C(=N\NC(N)=S)C1(C)CCCCC1" in this assay? 0.0

Could you please tell me the result logged for "COc1ccc(CCNC(=O)COC(=O)c2cc(Cl)nc(Cl)c2)cc1" in this assay? 0.0

Could you please tell me the result logged for Nc1nc2c(nnn2C2CC(O)C(CO)O2)c(=O)[nH]1 (stereo unspecified) in this assay? 0.0

Could you please tell me the result logged for "CCCc1cc(=O)n2nc(N3CCC(C(=O)N4CCN(c5ccc(OC)cc5)CC4)CC3)sc2n1" in this assay? 1.0

Could you please tell me the result logged for "COc1cc([N+](=O)[O-])ccc1NC(=O)C[n+]1ccccc1" in this assay? 0.0

Could you please tell me the result logged for "O=C(Nc1ccc2c(c1)CCCN2C(=O)c1ccco1)c1cc([N+](=O)[O-])ccc1Cl" in this assay? 1.0

---

TEST: VP16 transactivation reporter inhibitors, counter-screen for LRH-1 inverse agonist project, cell-based, luminescence, high throughput (AID 651615)
MEASUREMENT_SETUP: Gal4-VP16 luciferase reporter cells, at 3.6 µM, hits give high values
Lab note: anything with inhibition at or over 20% counts as TRUE; the rest go in FALSE.

COMPOUND	LABEL
Cn1cnc([N+](=O)[O-])c1Sc1nc(N)nc2c1ncn2C1OC(CO)C(O)C1O (configuration not stated)	TRUE
O=C(COC(=O)c1ccc(S(=O)(=O)N2CCCC2)cc1)Nc1ccc(N2CCOCC2)cc1	FALSE
CC(C)C(=O)Nc1ccc(C(=O)CN2C(=O)NC3(CCOc4ccccc43)C2=O)cc1 (configuration not stated)	FALSE
Nc1nc(F)nc2c1ncn2[C@@H]1O[C@H](CO)[C@@H](O)[C@H]1O	TRUE
C[C@@H]1CN([C@@H](C)CO)S(=O)(=O)c2ccc(-c3ccc(C#N)cc3)cc2O[C@@H]1CN(C)Cc1ccccn1	FALSE
CCc1ccccc1NC(=O)CSc1nc2n[nH]c(C)c2c(=N)n1-c1cccc(OC)c1	FALSE
O=C(NCCOc1cccnc1)c1ccc(OC2CCN(Cc3ccccn3)CC2)cc1	TRUE
O=C(CSc1ccccn1)Nc1nonc1[N+](=O)[O-]	FALSE
O=C1C(Nc2ccccc2)=C(N2CCCCC2)C(=O)c2ccccc21	FALSE
COC1C(=O)CCC2(CO2)C1(O)C1(C)OC1CC=C(C)C (configuration not stated)	TRUE

Could you please find out whether "CC(=O)c1ccc(-c2c(C)cc3oc(=O)cc(-c4ccccc4)c3c2C)cc1" has inhibition that meets 20% or exceeds it? FALSE

Could you please find out whether "CC(C)Oc1cccc(-c2cc(C(=O)NN3CCOCC3)c3ccccc3n2)c1" has inhibition that meets 20% or exceeds it? FALSE

Could you please find out whether "O=C(O)c1ccc(N/N=C/c2ccc3nccnc3c2)cc1" has inhibition that meets 20% or exceeds it? FALSE

Could you please find out whether "Cc1ccc(NC(=O)Cc2nnc(SCC(=O)Nc3ccc(N4CCOCC4)cc3)n2C)cc1" has inhibition that meets 20% or exceeds it? FALSE

Could you please find out whether "COc1ccccc1C(=O)Nc1nc(-c2ccc(S(=O)(=O)N3CCOCC3)cc2)cs1" has inhibition that meets 20% or exceeds it? TRUE

Could you please find out whether "COc1cc2c(cc1OC)CN(C(=O)c1ccc([N+](=O)[O-])o1)CC2" has inhibition that meets 20% or exceeds it? FALSE

Could you please find out whether "NS(=O)(=O)c1ccc(N=Nc2c(O)[nH]c3ccc(Br)cc23)cc1" has inhibition that meets 20% or exceeds it? FALSE

Could you please find out whether "CCCOc1ccc(Br)cc1CSC(=N)N" has inhibition that meets 20% or exceeds it? TRUE

Could you please find out whether "Oc1[nH]c2ccccc2c1N=NC(=S)N1CCOCC1" has inhibition that meets 20% or exceeds it? TRUE

Could you please find out whether "COc1ccc(NS(=O)(=O)c2ccc(-c3cnc(C4CC4)o3)cc2)cc1OC" has inhibition that meets 20% or exceeds it? TRUE

Could you please find out whether "CCOc1cc(CNc2ccc3c(c2)OCCO3)cc(Br)c1OC" has inhibition that meets 20% or exceeds it? FALSE

Could you please find out whether "COc1ccc(S(=O)(=O)/N=C2\C=C(Nc3ccc(O)cc3)C(=O)c3ccccc32)cc1" has inhibition that meets 20% or exceeds it? TRUE

Could you please find out whether "CC(=O)Nc1ccc(NC(=O)CSc2ccc(-c3ccc(-n4ccnc4)cc3)nn2)cc1" has inhibition that meets 20% or exceeds it? FALSE

Could you please find out whether CC1=C(n2nnc([N+](=O)[O-])n2)C(c2cccnc2)C(C#N)=C(N)O1 (configuration not stated) has inhibition that meets 20% or exceeds it? FALSE

Could you please find out whether "Cc1ccc(NC(=O)CSc2nc3ncc(Br)cc3[nH]2)cc1C" has inhibition that meets 20% or exceeds it? FALSE

Could you please find out whether "Clc1ccc(Cn2ncc3c(NCc4ccccc4)ncnc32)cc1" has inhibition that meets 20% or exceeds it? FALSE

Could you please find out whether "N=c1c2c(-c3ccccc3)c(-c3ccccc3)n(Cc3ccccc3)c2ncn1CCO" has inhibition that meets 20% or exceeds it? TRUE

---

TARGET_OR_TEST_SYSTEM: Nuclear receptor coactivator 3 (Homo sapiens)
TEST: SRC3 coactivator transcriptional activity inhibitors, confirmation, cell-based, luminescence, quadruplicate (AID 588792);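 further: 0% = DMSO treated cells and 100% = gossypol at 36 µM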
MEASUREMENT_SETUP: HEK293 GAL4-SRC3 luciferase reporter, at 3.6 µM, hits give high values
Lab note: anything with inhibition at or over 60% counts as 1 (yes); the rest go in 0 (no).

Known results for molecules:
MOLECULE	LABEL
CC1(C)CC(=O)C=C(C#CC2(O)CCCCC2)C1	0 (no)
N=c1c2c(-c3ccccc3)c(-c3ccccc3)n(Cc3ccccc3)c2ncn1CCO	0 (no)
COc1cc(NC(=O)c2cccs2)c(C(=O)OCC(=O)c2cc(C)n(-c3ccc(F)cc3)c2C)cc1OC	0 (no)

Could you please find out whether "C=CCn1c(C)cc(C(=O)COc2ccc(C)nc2[N+](=O)[O-])c1C" has inhibition that meets 60% or exceeds it? 0 (no)

Could you please find out whether "COc1ccc(CCN2C(=O)c3cccc4c(C(=O)N5CCCCC5)ccc(c34)C2=O)cc1OC" has inhibition that meets 60% or exceeds it? 0 (no)

Could you please find out whether "COC(=O)CCn1nnc(-c2ccc(C(C)C)cc2)n1" has inhibition that meets 60% or exceeds it? 0 (no)

Could you please find out whether "COc1cc(C(=O)OCC(=O)Nc2sccc2C(N)=O)cc(OC)c1OC" has inhibition that meets 60% or exceeds it? 0 (no)

Could you please find out whether "Cc1cccc(CNc2ncnc3ccc(-c4ccoc4)cc23)c1" has inhibition that meets 60% or exceeds it? 0 (no)

Could you please find out whether "Cc1c(C)c2ccc(OCC(=O)Nc3ccccn3)c(C)c2oc1=O" has inhibition that meets 60% or exceeds it? 1 (yes)

Could you please find out whether "COc1cc(OC)c2nc(C)c3c(c2c1)N(c1ccc(O)cc1)CC3" has inhibition that meets 60% or exceeds it? 0 (no)

Could you please find out whether "c1cnc2ccc(-n3ccnc3)cc2c1" has inhibition that meets 60% or exceeds it? 0 (no)

Could you please find out whether CCC1(OC(=O)CN(C)C)C(=O)OCc2c1cc1n(c2=O)Cc2cc3c(N)cccc3nc2-1 (centres undefined) has inhibition that meets 60% or exceeds it? 1 (yes)

Could you please find out whether "COc1cc(NS(C)(=O)=O)ccc1Nc1c2ccccc2nc2ccccc12" has inhibition that meets 60% or exceeds it? 1 (yes)

Could you please find out whether "O=C(Nc1ccc(S(=O)(=O)N2CCCC2)cc1)c1ccc(CN2CCc3ccccc3C2)cc1" has inhibition that meets 60% or exceeds it? 0 (no)

Could you please find out whether "Cc1cc(/C=c2/sc3nc4ccccc4n3c2=O)c(C)n1-c1ccccn1" has inhibition that meets 60% or exceeds it? 1 (yes)

Could you please find out whether "Cc1ccc(N/C(N)=N/c2nc(C)cc(C)n2)cc1" has inhibition that meets 60% or exceeds it? 0 (no)
